# assay_system: Cytochrome P450 2D6 (Homo sapiens)
# assay_method_text: Cytochrome P450 Family 2 Subfamily D Member 6 (CYP2D6) small molecule antagonists: luciferase reporter qHTS assay (AID 1671196); also: nearly all actives have a fitted effect of over 50% in size
# cond: P450-Glo CYP2D6 enzyme assay, luciferin luminescence, 1 h; series mostly up to 115 µM
Inconclusive results are not listed. Active and inactive are the calls of the source. Calls follow the shape of the dose curve; as a rule, active = well fitted inhibition curve with a large enough effect in the repeat runs; inconclusive = weak or mixed curves; inactive = no such curve, though single readings can be large or run the other way.
Just give me one of these, please: y (active), n (inactive)

Please review the following examples before continuing.
INPUT: Entry CC(C)OC(=O)OCOP(=O)(CO[C@H](C)Cn1cnc2c(N)ncnc21)OCOC(=O)OC(C)C : call = ?
OUTPUT: n

INPUT: Try this compound too: CCCC(=O)OC/C=C(\C)CCC=C(C)C
OUTPUT: n

Further cases:
INPUT: Entry C=CC(=O)CCCCC : call = ?
OUTPUT: n

INPUT: Try this compound too: COc1ccc(CCO)cc1
OUTPUT: n

INPUT: Try this compound too: CC(=O)O[C@@H]1CC2CCC1(C)C2(C)C (stereo partly drawn)
OUTPUT: n

INPUT: Try this compound too: COC(C)(OC)OC
OUTPUT: n

INPUT: Try this compound too: CCCCC1CCC(O)CC1 (stereo not drawn)
OUTPUT: n

---

# assay_method_text: qHTS assay to test for compound auto fluorescence at 590 nm (red) in HEK293 cell free culture (AID 720683)
# cond: cell-free medium autofluorescence, Ex540/Em590 red; series mostly up to 91.3 µM
Calls of active or inactive are those of the source. Calls come from the whole dose curve; as a rule, active = well fitted curve in the direction sought with a large enough effect in the repeat runs; inconclusive = weak or mixed curves; inactive = flat fitted curve, though single readings scatter. Positions of bridges follow the written chain, without caps; N, C: chain ends. Non-standard residues stand in square brackets, D forms with d. Residues, ends and D or L forms follow the SMILES beside them. hArg = N=C(N)NCCCC[C@H](N)C(=O)O; Mpa = O=C(O)CCS
outcome_measure: fluorescence, % of fluorescent control

# example entries with known answers
INPUT: What value of fluorescence, % of fluorescent control has been recorded for this entry: CCO
OUTPUT: inactive

INPUT: Try this compound too: CCCCCc1cccc(=O)o1
OUTPUT: inactive

INPUT: Try this compound too: CC(C)c1ccc(C=O)cc1
OUTPUT: inactive

INPUT: Try this compound too: CCC(C)C(C)=O (centres undefined)
OUTPUT: inactive

Further cases:
INPUT: What value of fluorescence, % of fluorescent control has been recorded for this entry: COC(C)(OC)OC
OUTPUT: inactive

INPUT: Try this compound too: CNCCS(=O)(=O)O
OUTPUT: inactive

INPUT: Try this compound too: O/N=C/C=N/O
OUTPUT: inactive

INPUT: Try this compound too: NC(=O)[C@@H]1CSSCCC(=O)N[C@@H](CCCCN=C(N)N)C(=O)NCC(=O)N[C@@H](CC(=O)O)C(=O)N[C@@H](Cc2c[nH]c3ccccc23)C(=O)N2CCC[C@H]2C(=O)N1 ([Mpa][hArg]GDWPC-NH2; disulfide 1-7)
OUTPUT: inactive

---

# assay_method_text: qHTS assay to identify small molecule HDAC inhibitors (AID 1259364);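 also: wild-type HCT-116 cells with endogenous class I/II HDAC activity; top concentration of the series differs between compounds; nearly all actives have a fitted effect of over 45% in size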
# cond: HCT-116 HDAC-Glo I/II luminescence, 2 h; series mostly up to 92.4 µM
Inconclusive results are not listed. Active and inactive are the calls of the source. Calls follow the shape of the dose curve; as a rule, active = well fitted inhibition curve with a large enough effect in the repeat runs; inconclusive = weak or mixed curves; inactive = flat fitted curve, though single readings scatter.
outcome_measure: outcome

# example entries with known answers
INPUT: What value of outcome has been recorded for this entry: CO/N=C(/C(=O)N[C@@H]1C(=O)N2C(C(=O)[O-])=C(C[n+]3ccn4ncccc43)CS[C@H]12)c1nsc(N)n1
OUTPUT: inactive

INPUT: Try this molecule too: O=C(O)[C@H](O)c1ccccc1
OUTPUT: inactive

INPUT: Try this molecule too: N#Cc1cscn1
OUTPUT: inactive

INPUT: Try this molecule too: O=NN(CCCl)C(=O)NC1CCCCC1
OUTPUT: inactive

INPUT: Try this molecule too: CC(C)CO
OUTPUT: inactive

Further cases:
INPUT: What value of outcome has been recorded for this entry: NCCOCCN
OUTPUT: inactive

INPUT: Try this molecule too: CCC(C(=O)OCCN1CCOC(c2ccccc2)C1C)c1ccccc1 (stereo not drawn)
OUTPUT: inactive

INPUT: Try this molecule too: C=CCSSCCC
OUTPUT: inactive

Attribution: PubChem BioAssay (Tox21)
